# System: MCF7 breast
# assay comment: NCI-60 one-dose screen, 48 h
# measurement parameters: 10 µM unless noted
About 83,000 compounds went through this panel and 20% of them were active in at least one assay; those are over-represented in the sample as a whole. The source made the active and inactive calls. How the source made its calls: active means growth percent below 10; inactive means the rest.
Allowed answers: Yes for active, No for inactive

Exercise: Tell me the recorded outcome of this test for "O=C(NCc1ccco1)Nc1cccc2c(NC(=O)NCc3ccco3)cccc12" .
Key: No

Exercise: Dear colleague, could you share the recorded outcome for NC(CSSCC(N)C(=O)O)C(=O)O (configuration not stated) when you have a moment?
Key: No

Exercise: Dear colleague, could you share the recorded outcome for "CCCCOC(=O)c1ccc(NC(=O)CCl)cc1" when you have a moment?
Key: No

Exercise: Could you please tell me the result logged for "CCCCCC(=O)OCCC1CCCCC1" in this assay?
Key: No

Exercise: Test call, this molecule: "CC(=O)N(CCCCCCN(C(C)=O)C(C)=O)C(C)=O"
Key: No

Exercise: Field: outcome | Entry: "CC(=O)C[n+]1ccc(C)cc1Sc1ccccc1C"
Key: No

Exercise: What is the recorded call for this molecule in the test? "Cc1cc(=O)n(Nc2ccccc2)c(O)c1C#N"
Key: No

Exercise: What classification did CCCC1OC(c2ccco2)OCC1CC (configuration not stated) end up with in this test?
Key: No

Exercise: Check the results log: what was the call for "Cc1ccc(OC(=O)c2ccccc2)cc1" ?
Key: No

Exercise: Assay outcome for "O=C(NCc1ccccc1)/C(=C/c1ccccc1)NC(=O)c1ccccc1" : what was it?
Key: No

Exercise: For this molecule, state the assay outcome: COC1=C(OC)C(=O)C(SC/C=C(\C)CCCC(C)CCCC(C)CCCC(C)C)=CC1=O (configuration not stated)
Key: Yes

Exercise: Short answer needed: outcome of this test for "CS(=O)(=O)c1ccc(/C=C\C(=O)O)cc1" ?
Key: No

Exercise: What call does the record list for "ON1CCCC1" ?
Key: No

Exercise: Can you look up the reported call for "Cc1nc(O)cc(=O)[nH]1" for me?
Key: No

Exercise: What classification did "N#C/C(=C\c1ccc(C#N)cc1)C(=O)c1ccccc1" end up with in this test?
Key: No

Exercise: Answer briefly: the call reported for "CN(C)CCOC(=O)Nc1ccc(Cc2ccc(NC(=O)OCCN(C)C)cc2)cc1" in this assay.
Key: No

Exercise: # outcome recorded in this test, key = "OC1Cc2ccccc2C1"
Key: No

Exercise: Which outcome was entered for the molecule "Nc1ncnc(Nc2ccccc2)n1" in this test?
Key: No

Exercise: I'd appreciate the recorded outcome for "Clc1cccc(Cl)c1CSc1nc2ccccc2n2cccc12" from this test.
Key: No

Exercise: Would you mind telling me which call this test gave "NC(=S)N/N=C/c1ccc(OC(=O)COc2ccccc2)cn1" ?
Key: No

Exercise: So what was the verdict on "Cc1ccc[n+](CCC(N)=O)c1" in this test?
Key: No

Exercise: Dear colleague, could you share the recorded outcome for CC(C)OCC(CCl)OC(=O)Nc1ccccc1 (configuration not stated) when you have a moment?
Key: No

Exercise: Just curious, what result did ClCC(Cl)C1CCC(Cl)C(Cl)C1 (configuration not stated) get here?
Key: No

Exercise: What call does the record list for CC(=O)C1C(=O)C(=O)N(c2cccc([N+](=O)[O-])c2)C1=O (configuration not stated) ?
Key: No

Exercise: For CC(c1ccccc1)N(C)C (configuration not stated) , what call appears in the results of this test?
Key: No

Exercise: Just curious, what result did "CC(C)N(C(=O)c1ccccc1)C(C)C" get here?
Key: No

Exercise: Each molecule tested received a call. Report the one for "C=CCS(C)(=O)=O" .
Key: No

Exercise: Tell me the recorded outcome of this test for "CCCCNC(=O)c1ccc(OCC)cc1" .
Key: No

Exercise: Call for entry CN1CCCN(C(c2ccccc2)c2ccc(Cl)cc2)CC1 (configuration not stated) :
Key: No

Exercise: What is the recorded call for this molecule in the test? "COc1ccc(Br)c2c1C(=O)CC2"
Key: No

Exercise: What is the recorded call for this molecule in the test? "S=C(NCc1ccccc1)N1CCC(CCCC2CCN(C(=S)NCc3ccccc3)CC2)CC1"
Key: No

Exercise: Returns: the outcome recorded for "NCCCN1CCCC1=O" in this assay.
Key: No

Exercise: Dear colleague, could you share the recorded outcome for "Cn1c2ccccc2c2nnc(NCCCCO)nc21" when you have a moment?
Key: No

Exercise: What did the test return for COC(=O)C1(CC(C)=O)NC(=S)NC(=O)C1C#N (configuration not stated) ?
Key: No

Exercise: Any idea what this test logged for "COCC(N)=O" ?
Key: No

Exercise: Identify the outcome logged in this assay for the molecule shown: "S=CN1CCCCC1"
Key: No

Exercise: Outcome logged for "Cc1ccc(S(=O)(=O)Oc2ccc3sc4c(CO)ccc(NCCN(C)C)c4c(=O)c3c2)cc1" in this assay:
Key: Yes

Exercise: What classification did "CC(=O)Nc1ccc(/C=C2\SC(=S)N(/C=C(\C(C)=O)C(N)=O)C2=O)cc1" end up with in this test?
Key: No

Exercise: I'd appreciate the recorded outcome for NC(=S)c1c(N)n(C2OC(CO)C(O)C2O)c2ncnc(N)c12 (configuration not stated) from this test.
Key: Yes

Exercise: How was "Nc1cc2c(cc1Cl)C(=O)c1ccccc1C2=O" classified in this test?
Key: No

Exercise: Given "COc1ccc(Nc2cc(Cl)ccc2C(=O)O)cn1" , state the outcome it received in this test.
Key: No

Exercise: # lookup: test call for "C1C[S+]2CC[S+]1CC2"
Key: No
